- target.system: GABA-A receptor; anion channel
- protocol.text: Binding affinity to mouse brain GABA receptor
pIC50: −log10 of the molar value.
Recorded pIC50 values for a group of compounds are listed next.

Worked examples, 2 compounds total:
{"compound": "FC1CCc2nn(-c3c(Cl)cc(C(F)(F)F)cc3Cl)cc21 (stereo not drawn)", "target.system": "GABA-A receptor; anion channel", "pIC50": "< 5.00"}
{"compound": "CC1(F)CC(F)(F)c2nn(-c3c(Cl)cc(C(F)(F)F)cc3Cl)cc21 (stereo not drawn)", "target.system": "GABA-A receptor; anion channel", "pIC50": "< 5.00"}

Moving on to another compound below.
*Q* For the compound shown here, CC1(O)c2cn(-c3c(Cl)cc(C(F)(F)F)cc3Cl)nc2C(F)C1F (stereo not drawn) , give the reported pIC50.
*A* < 5.00
